Kd for assorted binders
# assayed target: T1, SARS-CoV-2 receptor binding domain (RBD), wild type, His-tagged (SARS-CoV-2, UniProt P0DTC2 319-541)
# T1 construct: domain: RBD; also called His-tagged RBD; BEI NR52309
# method summary: method and format not given
Reply numerically in nM, unit not repeated.

Sample answers from the record:
[
  {
    "binder": "mAb 120 (antibody, V domains shown, also called IgG 120; Antibody 120) VH: QVQLVQSGAEVKKPGASVKVSCKASGYTFTSYDINWVRQAPGQGLEWMGMIDPSGGSTSYAQKFQGRVTMTRDTSTSTVYMELSSLRSEDTAVYYCAKDFGGGTRYDYWYFDLWGRGTLVTVSS VL: EIVMTQSPATLSVSPGERATLSCRASQSVSSRYLAWYQQKPGQAPRLLIYGASTRATGIPARFSGSGSGTEFTLTISSLQSEDFAVYYCQQYYTTPRTFGQGTRLEIKR",
    "unit spec": "nM",
    "result number": 24
  },
  {
    "binder": "mAb 254 (antibody, V domains shown, also called IgG 254; Antibody 254) VH: EVQLLESGGGLVQPGGSLRLSCAASGFTFSSSAMHWVRQAPGKGLEWVSAIGTGGDTYYADSVKGRFTISRDNSKNTLYLQMNSLRAEDTAVYYCAREGDGYNFYFDYWGQGTLVTVSS VL: DIQMTQSPSSLSASVGDRVTITCRASQGISSYLAWYQQKPGKAPKLLIYDASSLQIGVPSRFSGSGSGTDFTLTISSLQPEDFATYYCLQSYSTPPWTFGQGTKVEIKR",
    "unit spec": "nM",
    "result number": 127
  }
]

Now for another entry.
Prompt: Output measured Kd for this item: mAb 324 (antibody, V domains shown, also called IgG 324; Antibody 324) VH: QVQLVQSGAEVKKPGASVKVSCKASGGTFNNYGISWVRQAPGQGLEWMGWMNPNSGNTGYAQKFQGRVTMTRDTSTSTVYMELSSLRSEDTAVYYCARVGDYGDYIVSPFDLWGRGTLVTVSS VL: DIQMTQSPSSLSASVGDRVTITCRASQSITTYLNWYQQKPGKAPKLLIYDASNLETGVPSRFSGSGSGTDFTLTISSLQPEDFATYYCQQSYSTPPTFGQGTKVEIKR
Completion: 111
